Taken from patent US12285498B2.

- protocol details: PK, intravenous administration of drug alone (current study)
- Type: in vivo, rat
- condition info: female, rat, 3 mg/kg DOC, 12 mg/kg GEM, 6 mg/kg MMC, plasma, read-out: Cmax
Below is a list of entries, each paired with its recorded Cmax value.
measured metric: Cmax (ng/mL)

compound | value unit | value measured
Nc1ccn([C@@H]2O[C@H](CO)[C@@H](O)C2(F)F)c(=O)n1 [Gemcitabine] | ng/mL | 1790
CC(=O)O[C@@]12CO[C@@H]1C[C@H](O)[C@@]1(C)C(=O)[C@H](O)C3=C(C)[C@@H](OC(=O)[C@H](O)[C@@H](NC(=O)OC(C)(C)C)c4ccccc4)C[C@@](O)([C@@H](OC(=O)c4ccccc4)[C@H]21)C3(C)C [Docetaxel] | ng/mL | 116

###

- protocol details: in vivo
- condition info: female, rat, in vivo, 12 mg/kg
measured metric: Clearance (mL/min)

compound | measured metric | value unit | value measured
Nc1ccn([C@@H]2O[C@H](CO)[C@@H](O)C2(F)F)c(=O)n1 [Gemcitabine] | Clearance | mL/min | 143

###

- protocol details: PK, intravenous administration of drug alone (current study)
- Assay type: in vivo, rat
- condition info: female, rat, plasma, 3 mg/kg, read-out: tmax
measured metric: tmax (min)

molecule | value measured
CC(=O)O[C@@]12CO[C@@H]1C[C@H](O)[C@@]1(C)C(=O)[C@H](O)C3=C(C)[C@@H](OC(=O)[C@H](O)[C@@H](NC(=O)OC(C)(C)C)c4ccccc4)C[C@@](O)([C@@H](OC(=O)c4ccccc4)[C@H]21)C3(C)C | 15

###

- protocol details: PK, intravenous administration of drug alone (current study)
- Assay type: in vivo, rat
- condition info: female, rat, plasma, 3 mg/kg
measured metric: Clearance

molecule | value measured
CC(=O)O[C@@]12CO[C@@H]1C[C@H](O)[C@@]1(C)C(=O)[C@H](O)C3=C(C)[C@@H](OC(=O)[C@H](O)[C@@H](NC(=O)OC(C)(C)C)c4ccccc4)C[C@@](O)([C@@H](OC(=O)c4ccccc4)[C@H]21)C3(C)C | 624 mL/min

###

- protocol details: in vivo
- condition info: female, rat, in vivo, po, 3 mg/kg

molecule | tmax / h
CC(=O)O[C@@]12CO[C@@H]1C[C@H](O)[C@@]1(C)C(=O)[C@H](O)C3=C(C)[C@@H](OC(=O)[C@H](O)[C@@H](NC(=O)OC(C)(C)C)c4ccccc4)C[C@@](O)([C@@H](OC(=O)c4ccccc4)[C@H]21)C3(C)C | 1

###

- protocol details: in vivo
- condition info: female, rat, in vivo, po, 3 mg/kg
measured metric: AUC (ng·h/mL)

compound | measured metric | value unit | value measured
CC(=O)O[C@@]12CO[C@@H]1C[C@H](O)[C@@]1(C)C(=O)[C@H](O)C3=C(C)[C@@H](OC(=O)[C@H](O)[C@@H](NC(=O)OC(C)(C)C)c4ccccc4)C[C@@](O)([C@@H](OC(=O)c4ccccc4)[C@H]21)C3(C)C [Docetaxel] | AUC | ng·h/mL | 13.3

###

- protocol details: in vivo
- condition info: female, rat, in vivo, po, Cmax in stool
measured metric: Cmax

molecule | value measured
CC(=O)O[C@@]12CO[C@@H]1C[C@H](O)[C@@]1(C)C(=O)[C@H](O)C3=C(C)[C@@H](OC(=O)[C@H](O)[C@@H](NC(=O)OC(C)(C)C)c4ccccc4)C[C@@](O)([C@@H](OC(=O)c4ccccc4)[C@H]21)C3(C)C | 352 ng/mL
Nc1ccn([C@@H]2O[C@H](CO)[C@@H](O)C2(F)F)c(=O)n1 | 26.1 ng/mL

###

- protocol details: in vivo
- condition info: female, rat, in vivo, 12 mg/kg
measured metric: tmax (min)

molecule | measured metric | value measured
Nc1ccn([C@@H]2O[C@H](CO)[C@@H](O)C2(F)F)c(=O)n1 | tmax | 15

###

- protocol details: in vivo
- condition info: female, rat, in vivo, po, 12 mg/kg

molecule | AUC [ng·h/mL]
Nc1ccn([C@@H]2O[C@H](CO)[C@@H](O)C2(F)F)c(=O)n1 | 1140

###

- protocol details: PK, intravenous administration of drug alone (current study)
- Assay type: in vivo, rat
- condition info: female, rat, plasma, 12 mg/kg, read-out: tmax
- Experimental: Adult female rats are 250-300 g in body weight, or 10-15 times larger than adult C57-BI6 mice. The volume of an aqueous solution given by oral gavage procedure can be up to 5 mL/kg, thus for a 300 g rat, 1.5 mL volume is achievable (Turner, J Am Assoc Lab Anim Sci. 51(1): 25-30.). This permits a mass of 150 mg MSN, or the equivalent dose of free drug. […]
measured metric: tmax (min)

molecule | measured metric | value measured
Nc1ccn([C@@H]2O[C@H](CO)[C@@H](O)C2(F)F)c(=O)n1 | tmax | 15

###

- protocol details: in vivo
- condition info: female, rat, in vivo, 12 mg/kg
measured metric: AUC (ng·h/mL)

compound | value unit | value measured
Nc1ccn([C@@H]2O[C@H](CO)[C@@H](O)C2(F)F)c(=O)n1 [Gemcitabine] | ng·h/mL | 280

###

- protocol details: PK, intravenous administration of drug alone (current study)
- Format: in vivo, rat
- condition info: female, rat, plasma, 3 mg/kg, read-out: AUC (Plasma Curves)
measured metric: AUC

compound | value measured
CC(=O)O[C@@]12CO[C@@H]1C[C@H](O)[C@@]1(C)C(=O)[C@H](O)C3=C(C)[C@@H](OC(=O)[C@H](O)[C@@H](NC(=O)OC(C)(C)C)c4ccccc4)C[C@@](O)([C@@H](OC(=O)c4ccccc4)[C@H]21)C3(C)C [Docetaxel] | 16 ng·h/mL

###

Below is a list of entries, each paired with its recorded Cmax value.
- protocol details: in vivo
- condition info: female, rat, in vivo, initial concentration (Cmax) in urine
- From the text: Blood, urine, and stools were collected to evaluate renal and gastro-intestinal clearance of nanomaterials. Sequential and simultaneous administration of one material and before the start of another to allow full clearance. Both strains were obtained from Inotiv (Indianapolis, IN, USA). F344 rats were instilled with rat AY27 bladder cancer cells and athymic nude rats were instilled with human male bladder cancer strains: T24 and UMUC-3. […]
measured metric: Cmax

compound | value measured
CC(=O)O[C@@]12CO[C@@H]1C[C@H](O)[C@@]1(C)C(=O)[C@H](O)C3=C(C)[C@@H](OC(=O)[C@H](O)[C@@H](NC(=O)OC(C)(C)C)c4ccccc4)C[C@@](O)([C@@H](OC(=O)c4ccccc4)[C@H]21)C3(C)C [Docetaxel] | 16600 ng/mL
Nc1ccn([C@@H]2O[C@H](CO)[C@@H](O)C2(F)F)c(=O)n1 [Gemcitabine] | 55600 ng/mL

###

- protocol details: in vivo
- condition info: female, rat, in vivo, po, Cmax in urine
Below is a list of entries, each paired with its recorded Cmax value.

molecule | Cmax / ng/mL
CC(=O)O[C@@]12CO[C@@H]1C[C@H](O)[C@@]1(C)C(=O)[C@H](O)C3=C(C)[C@@H](OC(=O)[C@H](O)[C@@H](NC(=O)OC(C)(C)C)c4ccccc4)C[C@@](O)([C@@H](OC(=O)c4ccccc4)[C@H]21)C3(C)C | 413
Nc1ccn([C@@H]2O[C@H](CO)[C@@H](O)C2(F)F)c(=O)n1 | 4740

###

- protocol details: in vivo
- condition info: female, rat, in vivo, Cmax in stools
measured metric: Cmax (ng/mL)

molecule | value measured
CC(=O)O[C@@]12CO[C@@H]1C[C@H](O)[C@@]1(C)C(=O)[C@H](O)C3=C(C)[C@@H](OC(=O)[C@H](O)[C@@H](NC(=O)OC(C)(C)C)c4ccccc4)C[C@@](O)([C@@H](OC(=O)c4ccccc4)[C@H]21)C3(C)C | 9.44
Nc1ccn([C@@H]2O[C@H](CO)[C@@H](O)C2(F)F)c(=O)n1 | 2.23

###

- protocol details: PK, intravenous administration of drug alone (current study)
- Format: in vivo, rat
- condition info: female, rat, plasma, 12 mg/kg, read-out: AUC (Plasma Curves)
- Description: Adult female rats are 250-300 g in body weight, or 10-15 times larger than adult C57-BI6 mice. The volume of an aqueous solution given by oral gavage procedure can be up to 5 mL/kg, thus for a 300 g rat, 1.5 mL volume is achievable (Turner, J Am Assoc Lab Anim Sci. 51(1): 25-30.). This permits a mass of 150 mg MSN, or the equivalent dose of free drug. […]

compound | AUC / ng·h/mL
Nc1ccn([C@@H]2O[C@H](CO)[C@@H](O)C2(F)F)c(=O)n1 [Gemcitabine] | 2300
